B1: Pistol ribozyme (parent)
chain: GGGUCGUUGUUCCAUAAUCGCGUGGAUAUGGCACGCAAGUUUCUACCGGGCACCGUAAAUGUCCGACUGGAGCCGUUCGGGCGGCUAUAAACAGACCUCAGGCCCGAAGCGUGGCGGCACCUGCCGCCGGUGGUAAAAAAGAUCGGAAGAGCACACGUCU

# Variants of: B1
# Test description: aptazyme ON/OFF ratio, guanine; higher = stronger switching; co-transcriptional cleavage with and without guanine
Quantity kind: aptazyme ON/OFF ratio
Just the number.

| Variant descriptor | aptazyme ON/OFF ratio |
| --- | --- |
| U8A G9U U11C C12U | 1.13 |
| G9C U10A U11G C12G C13A | 1.19 |

Which aptazyme ON/OFF ratio value is on record for U7C U8C U10G C12U C13G ?
1.1

Give the measured aptazyme ON/OFF ratio of G9A U10G U11A C12G C13A .
1.02
